Listing of recorded IC50 by entry.
target: HLA-DRB1*01:01 (plate-bound, peptide-binding assays) (human); assay: competition peptide-binding assay on plates
Square brackets hold non-standard residues; d marks the D form. Ends that are not written are not given here. Cit = NC(=O)NCCC[C@H](N)C(=O)O

Please review the entries below; each comes with its answer.
Binder: MSILKIHA[Cit]EIFDS[Cit] [α-enolase peptide Cit1 (residues 1–15), citrullinated]
Result: > 50 µM

Binder: KAKFAGRNFRNPLAK [α-enolase peptide 420 (residues 420–434), native]
Result: > 50 µM

# ---- query binder ----
Enquiry: Look up IC50 of VIGMDVAASEFFRSG [α-enolase peptide 241 (residues 241–255), native] and report it.
Return: 35 µM
